# Tested on: HuT78
# test-protocol: Compound was tested for inhibition of MAdCAM-1/alpha-4 beta-7 mediated cell adhesion to T-cell lymphoma, HUT78 cells
# Assay type: functional, cell-based
# conditions-used: Homo sapiens
measured-metric: pIC50
Give bare numbers, as −log10 of the molar value.

input-smiles	measured-metric	quantitative-readout
CC(C)C[C@H](NC(=O)[C@H](CO)NC(=O)[C@@H](NC(=O)[C@H](CC(=O)O)NC(=O)[C@H](CC(C)C)NC(=O)C1c2ccccc2-c2ccccc21)[C@@H](C)O)C(N)=O	pIC50	4.73
CC(C)C[C@H](NC(=O)[C@H](CO)NC(=O)[C@@H](NC(=O)[C@H](CC(=O)O)NC(=O)[C@H](CC(C)C)NC(=O)CCCc1ccc2ccc3cccc4ccc1c2c34)[C@@H](C)O)C(N)=O	pIC50	5.30

// next entry
Notebook entry, HuT78 assay: pIC50 of CC(C)C[C@H](NC(=O)[C@H](CO)NC(=O)[C@@H](NC(=O)[C@H](CC(=O)O)NC(=O)[C@H](CC(C)C)NC(=O)C(c1ccccc1)c1ccccc1)[C@@H](C)O)C(N)=O = ?
4.87

The reported numbers originate from ChEMBL document CHEMBL1129205.
